Tested on: anti-CR2 SCR1-2 monoclonal antibody 171
assay summary: MBP-CR2 SCR1-2-171 mAb ELISA
Format: binding
reported conditions: mutant MBP-CR2 SCR1-2 relative to wild-type; plate-bound 171 mAb

{"columns": ["molecule", "% 171 mAb Binding"],
 "data": [
  ["R83A: single-site mutant of recombinant MBP-CR2 SCR1-2 (protein, left off: large carriers; small tags and cut ends) ISCGSPPPILNGRISYYSTPIAVGTVIRYSCSGTFRLIGEKSLLCITKDKVDGTWDKPAPKCEYFNKYSSCPEPIVPGGYKIAGSTPYRHGDSVTFACKTNFSMNGNKSVWCQANNMWGPTRLPTCVSVFPLE", "96.9%"],
  ["R28A: single-site mutant of recombinant MBP-CR2 SCR1-2 (protein, left off: large carriers; small tags and cut ends) ISCGSPPPILNGRISYYSTPIAVGTVIAYSCSGTFRLIGEKSLLCITKDKVDGTWDKPAPKCEYFNKYSSCPEPIVPGGYKIRGSTPYRHGDSVTFACKTNFSMNGNKSVWCQANNMWGPTRLPTCVSVFPLE", "103.5%"],
  ["S15P: single-site mutant of recombinant MBP-CR2 SCR1-2 (protein, left off: large carriers; small tags and cut ends) ISCGSPPPILNGRIPYYSTPIAVGTVIRYSCSGTFRLIGEKSLLCITKDKVDGTWDKPAPKCEYFNKYSSCPEPIVPGGYKIRGSTPYRHGDSVTFACKTNFSMNGNKSVWCQANNMWGPTRLPTCVSVFPLE", "108.5%"]
]}

The measured values listed here are drawn from patent US20120108492A1.
